Listed below: %Inh values for each entry.
Tested on: CDKL5
measurement-parameters: concentration: 1 μM, replicates: in singlicate; n = 1;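 further: KINOMEscan kinase panel screen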
recorded-metric: %Inh (%)

INSERT INTO measurements (compound, units, result_value) VALUES
  ('Cl.Fc1ccccc1COc1ccc(Nc2ncnc3ccc(-c4nnc(C(F)(F)F)o4)cc23)cc1Cl [GW424170]', '%', 0),
  ('Clc1cccc(-c2nc(Nc3ccncc3)c3ccccc3n2)c1 [GW873004]', '%', 3),
  ('Cn1ccc2ncnc(Nc3ccc(Oc4cccc(Cl)c4)c(Cl)c3)c21', '%', 23);

----------
System: ASK2
Construct: gene MAP3K6
measurement-parameters: concentration: 1 μM, replicates: in singlicate; n = 1
recorded-metric: %Inh (%)

INSERT INTO measurements (compound, recorded_metric, result_value) VALUES
  ('COc1ccc(NC(=O)Nc2ccc(C)c(-c3ccc(C(=O)Nc4ccncc4)cc3)c2)cc1 [GSK1398475]', '%Inh', 0),
  ('Nc1nc(-c2cccnc2)c(-c2ccnc3ccccc23)s1 [GW684083]', '%Inh', 10),
  ('CN1CCC(n2cnc(-c3ccc(F)cc3)c2-c2ccnc(NC3CCNCC3)n2)CC1 [SB-229482]', '%Inh', 0),
  ('COC(=O)c1c(-c2ccccc2)c2cc(Cl)ccc2c(=O)n1Cc1ccc(S(C)(=O)=O)cc1', '%Inh', 6);
